- Tgt: 16S ribosomal subunit RNA target
- Assay Remarks: Mass spectrometry based binding assay (FTICR), 16S
- Reported Conditions: marked with an asterisk: run at 500 nM RNA; Example 105
Measurement Label: Kd (nM)
Output spec: scalar in nM, unitless text.

>>> reported_result("CN(C)CCOC1C(OC2C(O)C(N)CC(N)C2OC2OC(CO)C(O)C(O)C2N)OC(CO)C1OC1OC(CN)C(O)C(O)C1N (centres unmarked)")
900

Shifting focus to the compound that follows.
get_value(item= NCCCNCCOC1C(OC2C(O)C(N)CC(N)C2OC2OC(CO)C(O)C(O)C2N)OC(CO)C1OC1OC(CN)C(O)C(O)C1N (centres unmarked) , readout=Kd) returns 400

These data points were gathered from patent US8569264B2.
